Data origin: BindingDB's records for doi:10.1021/acs.jmedchem.6b01303

Experiment: Inhibition of SMYD2 (unknown origin) expressed in human U2OS cells assessed as reduction in cell count incubated for 24 hrs by DAPI staining based assay
Outcome measure: pIC50
Hey, just a heads up that pIC50 is the negative log base 10 of the concentration in molar.

[[record]]
item_smiles = "N#Cc1cc(C(=O)NCCCN2CCCC2)cc(-c2ccccc2N2CCN(CCc3ccc(Cl)c(Cl)c3)CC2)c1"
outcome_measure = "pIC50"
test_result = 5.30


If you can, please state the reported pIC50 value of `O=C(NCCCN1CCCC1)c1cncc(-c2ccccc2N2CCN(CCc3c[nH]c4ccccc34)CC2)c1` .
4.88
